System: SK-MEL-5 melanoma
Experiment: NCI-60 one-dose screen, 48 h
Conditions: 10 µM unless noted
About 83,000 compounds went through this panel and 20% of them were active in at least one assay; those are over-represented in the sample as a whole. Active and inactive are the calls of the source. Rule for the calls: active = growth percent below 10; inactive = the rest.
Parameter call: string, one of yes = active, no = inactive

>>> assigned_label("Nc1cc(C(=O)O)cc(C(=O)O)c1")
"no"

Per the records of this test, what outcome belongs to O=C(CCl)Nc1cc(O)c2c(c1)C(=O)c1cccc(O)c1C2=O ?
yes

Same thing, different molecule: COc1ccccc1CNCCCN1C(=O)c2ccc3c4c(ccc(c24)C1=O)C(=O)N(CCCOCCCCOCCCN)C3=O
yes

Next: c1cn2cc(-c3ccc4ncn(C5CCCCC5)c4c3)nc(-c3ccc4c(c3)ncn4C3CCCCC3)c2n1
yes

Record: CN(C)N1C(=O)c2c(Cl)c(Cl)c(Cl)c(Cl)c2C1=O
no

Proceed to CCOC(=O)C1C(=O)C=C(c2cc(OC)c(OC)c(OC)c2)CC1c1sc(N(C)Cc2ccccc2)nc1Cl (stereo not drawn)
no

----------
Test system: CCRF-CEM leukemia
Assay: NCI-60 one-dose screen, 48 h
Conditions: 10 µM unless noted
This is part of a sample that, as a whole, favours compounds with a hit. Of some 83,000 tested, about 20% had one in any assay. Calls of active or inactive are those of the source. Rule for the calls: active = growth percent below 10; inactive = the rest.
Please state which outcome applies, choosing from 1.0 for active, 0.0 for inactive

Some entries whose results are on file:
>>> assigned_label("Nc1c(C(=O)Nc2cccc(Cl)c2)sc2nc3c(cc12)C(=O)CCC3")
0.0
>>> assigned_label("CCN1C(=O)N(CC)C2C1NN=c1s/c(=C\\c3ccco3)c(=O)n12 (stereo not drawn)")
0.0
>>> assigned_label("ClCc1c(Cl)c(Cl)c(Cl)c(CCl)c1Cl")
1.0
>>> assigned_label("COCc1nc(NS(=O)(=O)c2ccc(N)cc2)nc(C)c1Br")
0.0
>>> assigned_label("CCCCCCCCCCCCCC1=NC(C)(C)CN1C(C)C")
1.0

# fetch the recorded call for CC(=O)C1CCC2C3CC(C)=C4CC(O)CCC4(C)C3CCC12C (stereo not drawn) here
0.0

Do the same for Cc1cc(O)ccc1Sc1ccccc1[N+](=O)[O-] please
0.0

----------
Give growth for every item shown.
System: SK-MEL-28 melanoma
Experiment: NCI-60 one-dose screen, 48 h (100 = growth as untreated, 0 = no growth, -100 = all killed)
Conditions: 10 µM unless noted
Description: Growth inhibition of the SK-MEL-28 human tumor cell line is measured as a screen for anti-cancer activity. Cells are grown in 96 well plates and exposed to the test compound for 48 hours. Compounds are tested at a single concentration, which is 10^-5 M for most compounds. The reported endpoint is percent growth (GI% or GIPRCNT), where numbers from 0 - 100% represent growth inhibition, and numbers from -100% - 0 represent cell death. For example, a value of 40 represents 60% growth inhibition. […]
The panel holds about 83,000 compounds, 20% with a hit somewhere; the sample as a whole holds those more often.
Answers are plain numbers, in %.

Would you please look over these solved cases?
>>> recorded_result("CC1CCCN(CCCCOc2ccc(-c3ccc(C#N)cc3)cc2)C1 (stereo unspecified)")
100
>>> recorded_result("Fc1ccc(-c2nc(-c3ccc(-c4nc5ccc(F)cc5[nH]4)cc3)no2)cc1")
80.5
>>> recorded_result("CCN(CC)CCCC(C)Nc1c(-c2ccccc2)cnc2cc(Cl)ccc12 (stereo unspecified)")
15.3
>>> recorded_result("Nc1c(C(=O)Nc2cccc(Cl)c2)sc2nc3c(cc12)C(=O)CCC3")
51.4

Need growth for each of these molecules.
1. CC(C)c1ccc(-c2cnc3nonc3n2)cc1
2. C=C(COC(C)=O)[C@H]1CC/C(C)=C/CC/C(C)=C/CC[C@@]2(C)O[C@H]2C1

1: 73.9; 2: 104
